parameter: melting point (°C)
One number for each entry, in °C.

These recorded examples may help you get a feel for the data.
>>> df
                                   compound      parameter  value_units  value_reported
0  COc1ccc(C2CSc3ccccc3NC2=O)cc1OC (centres undefined)  melting point           °C             174
1  CC[C@@](O)(CC(=O)N1C(=O)O[C@@H](c2ccccc2)[C@H]1c1ccccc1)c1ccnc(OC)c1COCc1ccccc1  melting point           °C              61
2                   CN(C)C/C=C\c1ncccc1OCCO  melting point           °C              71
3  Cn1ccn(-c2ccc(N3CCN(c4ccc(O)cc4)CC3)cc2)c1=O  melting point           °C             283
4  CC(=O)c1ccc2c(c1)C(n1ccccc1=O)C(O)C(C)(C)O2 (centres undefined)  melting point           °C             260
5  COC(=O)Cc1ccc(CNC(=O)C2Cc3c(OC)cccc3N2S(=O)(=O)c2ccc(-c3cccc(C(F)(F)F)c3)cc2)cc1 (centres undefined)  melting point           °C              80
6  COC(=O)CCCc1cc2nc(Cl)ccc2n1S(=O)(=O)c1ccc(N2CCOCC2)cc1  melting point           °C             110

What value of melting point has been recorded for this entry: "CCO[C@@H]1C[C@@H](C(=O)NC)N(S(=O)(=O)c2ccc(Cl)c(CBr)c2Cl)C1"
122

====

Provide the recorded melting point for the entries that follow.

For every item in the list below, what is its measured melting point?
1. COC(=O)C1CCC2C3CCC4CC(O)C(Br)CC4(C)C3CCC12C (configuration not stated)
2. CCOC(=O)c1cn2c(ccc3ccc(Cl)cc32)n1
3. CCCCCCCCC(=O)Nc1cc([N+](=O)[O-])ccc1O

195 to 198 °C
221 to 222 °C
140 to 141 °C

Could I get melting point for every one of these entries?
1. CCOC(=O)CC(=O)N(C)c1ccc(Cl)cc1[N+](=O)[O-]
2. CC1(O)CN(C(=O)c2cc(C(C)(C)C)c(O)c(C(C)(C)C)c2)C1
3. Nc1c(Cl)c(Br)cc2[nH]c(=O)c(=O)[nH]c12
4. CCCCCCCCCCCCC(=O)c1c[nH]c(C2(OC)OCCSSO2)c1 (configuration not stated)
5. COc1ccc(COc2ncccc2C(=O)O)cc1OC1CC2CCC1C2 (configuration not stated)

1: 45 to 47 °C; 2: 148 to 153 °C; 3: > 350 °C; 4: 77 to 78 °C; 5: 50 °C

Consider the following items and state reported melting point for each.
1. CCCCCCCCCCCCCC(=O)Nc1ccc(Cl)c(NC(=CC(=O)OCC)NNc2c(Cl)cc(Cl)cc2Cl)c1
2. N#CC1(c2ccccc2)CCCCC1
3. COc1ccc(C2(CF)CCC(=O)CC2)cc1OC1CCCC1
4. CS(=O)(=O)Nc1ccc(OCCCCl)cc1
5. O=C(O)C(Cl)=Cc1cc(-n2c(=O)cc(C(F)(F)F)[nH]c2=O)ccc1Cl
6. O=C(c1ccc2ncccc2c1)c1ccc2[nH]c(=O)nc(-c3cccc(Cl)c3)c2c1

1. 91 to 93 °C
2. 120 to 122 °C
3. 72 to 74 °C
4. 120 to 122 °C
5. > 250 °C
6. > 260 °C

Could you report melting point for every entry in the following list?
1. COc1cc(OC(C)C)ccc1-c1c(OC(C)C)cccc1C(=O)O
2. O=C(c1ccsc1)c1cccc2ccccc12
3. Cn1nc(-c2nc(Br)c(N)nc2-c2ccccc2)ccc1=O
4. NS(=O)(=O)c1cc2cc(O)ccc2s1
5. COc1nc(-c2ccccc2F)c2ccsc2n1

1: 117 to 119 °C; 2: 50 °C; 3: 220 to 222 °C; 4: 192 to 194 °C; 5: 175 to 176 °C

Provide each entry's melting point from the list below.
1. CCCCCCCCC1(C)SC(=O)C=C1OCC(=O)Nc1ccc(OC)cc1 (configuration not stated)
2. CCNC(=C[N+](=O)[O-])SC
3. CCOC(=O)c1ccc2c(c1)nc(-c1c(Cl)cccc1Cl)n2C

1. 99 °C
2. 66 to 67.5 °C
3. 164 to 166 °C

====

Exercise: state measured melting point for each of the compounds provided.

Here is how some compounds turned out for melting point.
>>> print(df.to_string())
                                   compound  value_reported
0     Cn1nc2c(-c3ccc(Cl)cc3Cl)cccc2c1C=CC#N   258 to 259 °C
1  COC(=O)CCc1cc(C(=O)c2cccc(C(=O)OC)n2)ccc1OC     97 to 98 °C
2  CCc1cc(C(F)(C(F)(F)F)C(F)(F)F)cc(C)c1NC(=O)c1cccc(N=S=O)c1   100 to 108 °C
3            CCOC(=O)c1cnc2c3ccccc3ccn2c1=N   197 to 199 °C
4  C=CCNc1ccc([N+](=O)[O-])cc1C(=O)c1ccccc1           97 °C

Quick request: melting point for each listed item, please.
1. O=C(c1ccc(O)cc1)c1c(-c2ccccc2)cc2ccccn12
2. Fc1cc(F)c2c(c1)CCC2n1cc[nH]c1=S (stereo unspecified)

1. 179 °C
2. 212 to 215 °C

====

parameter: melting point

Below are worked cases with known answers.
                                   compound  value_reported
0                    O=C(c1ccc(F)cc1O)C1CC1           58 °C
1  CC1CC(=O)NN=C1c1ccc(N2CCC(CN3C(=O)c4ccccc4C3=O)CC2)c([N+](=O)[O-])c1 (stereo unspecified)   256 to 258 °C
2            O=C(NC1CCSCC1)c1cnccc1C(F)(F)F   161 to 163 °C
3                     CN1Cc2nnnn2-c2ccccc21   107 to 110 °C

Dear colleague, could you send me melting point for each of the items below? Thanks.
1. COc1ccc(C(C#N)=NO)cc1
2. CCCc1nc2c(N)nc3cc(OCc4ccc(C(F)(F)F)cc4)ccc3c2n1CC(C)C
3. CCC1Cc2cc(C(C)C(=O)O)ccc2O1 (stereo unspecified)
4. COC(=O)c1ccc(Oc2c(-c3ccc(OCc4ccccc4)cc3)c(C(F)(F)F)cc3ccccc23)cc1

141 °C
192 to 194 °C
70 to 72 °C
131 to 132 °C

Return reported melting point values for all items listed beneath this line.
1. COc1ccc(C=CC(=O)CC(=O)C=Cc2ccc(OC)c(OC)c2)cc1OC
2. CN1CCC(C2c3sccc3CCn3ncnc32)CC1 (stereo unspecified)

1. 129 to 131 °C
2. 123 °C

Reported melting point for "CCCOc1nc(=O)n(C(=O)NC)s1" : what is it?
112 °C

====

parameter: melting point

>>> df
                                   molecule      parameter  value_reported
0  CCOC(=O)NN=Cc1cc(-n2c(=O)cc(C(F)(F)F)n(C)c2=O)ccc1Cl  melting point   111 to 116 °C

For each entry beneath this line, provide reported melting point.
1. COc1c(N2CC[C@@H](C(C)(C)NC(=O)OC(C)(C)C)C2)c(F)cc2c(=O)c(C(=O)O)cn(C3CC3)c12
2. NC(=O)C1(CC23CC4CC(CC(C4)C2)C3)C=C(O)C=CC1Cl (stereo not given)
3. Cc1cc(C(C)N(O)C(=O)NCCO)c(C)s1 (stereo not given)
4. CCC(CC)Nc1nc(C)nc(Oc2c(C)cc(C)nc2C)c1[N+](=O)[O-]
5. N#Cc1cscc1Sc1ccccc1
6. O=C(O)c1ccccc1-c1ccc(C(F)(F)F)c(Cl)c1
7. CCn1cc(C2(c3ccc(F)c(-c4cccnc4F)c3)N=C(N)N(C)C2=O)cc1C(=O)OC (stereo not given)

["70 to 72 °C", "263 to 264 °C", "122 to 124 °C", "134 to 135 °C", "32 to 34 °C", "181 to 184 °C", "114 to 117 °C"]

Quick batch: melting point for everything below.
1. CCCCC(CC)Nc1cc(C)nc(Cl)c1N (stereo not given)
2. CCC(CC)Nc1cc(C)nc(Nc2c(C)cc(C)cc2C)c1N

1. 139 to 140 °C
2. 213 to 216 °C

====

Can you tell me melting point for the items I'm about to list?

Guide cases for melting point, answers given:
>>> print(df.to_string())
                                   molecule      parameter   value_reported
0  COc1cccc(C(=C/C=C/C(=O)NC(C)(C)CCCc2cccnc2)c2cccc(OC)c2)c1  melting point    120 to 121 °C
1  CCC(COC)n1cc(Cl)nc(N2CCc3cc(OC)c(F)c(Cl)c32)c1=O (stereo not drawn)  melting point    140 to 142 °C
2  CC(=O)NC[C@H]1CN(c2ccc(-n3nccc3-c3ccncc3)c(F)c2)C(=O)O1  melting point  74.5 to 76.3 °C
3                  N#Cc1ccc(C#CCCC(=O)O)cc1  melting point    149 to 152 °C

I'm hoping you can list melting point for every molecule here, please.
1. COc1ccc(C2=CC(=Nc3c(C)cc(C)cc3C)N(C)CN2)cc1OC
2. CSc1ccc(/C=C2/C(CCN(O)C(N)=O)=C(C)c3ccccc32)cc1

1: 165 to 166 °C; 2: 120 to 122 °C

Can you give me melting point for all of these, one by one?
1. NNC1=NCCCCN1
2. N#Cc1ccc(CC23CCCN2C(=O)N(c2cc(Cl)c(N)c(Cl)c2)C3=O)cc1 (stereo not drawn)

133 to 135 °C
103 °C

Provide reported melting point for each item, in the same order as listed.
1. CCc1ccnc(C(=O)c2[nH]c3ccc(CC)cc3c2CC(=O)O)c1
2. NC(=O)CCc1ccc(F)cc1F
3. O=C(NCCO)c1cc(-c2cccc3cc(Cc4cccc(C(F)(F)F)c4)sc23)ncn1
4. N#CCCCNC(=O)c1n[nH]cc1NC(=O)c1ccccn1
5. C=C=Cn1[nH]c2ccccc2c1=O
6. Cc1nccc2c3ccc(OCC4CCCCC4)cc3n(CC3CCCCC3)c12
7. C/C(=C\C=C(c1ccccc1)c1ccccc1)C(=O)NCCCCc1cccnc1

1. 206 °C
2. 107 to 108 °C
3. 46 to 47 °C
4. 231 to 233 °C
5. 126 to 130 °C
6. 152 °C
7. 93 to 94 °C
